# assayed-system: DNA repair and recombination protein RAD54-like (Homo sapiens, UniProt Q92698)
# Sequence (Q92698 whole entry): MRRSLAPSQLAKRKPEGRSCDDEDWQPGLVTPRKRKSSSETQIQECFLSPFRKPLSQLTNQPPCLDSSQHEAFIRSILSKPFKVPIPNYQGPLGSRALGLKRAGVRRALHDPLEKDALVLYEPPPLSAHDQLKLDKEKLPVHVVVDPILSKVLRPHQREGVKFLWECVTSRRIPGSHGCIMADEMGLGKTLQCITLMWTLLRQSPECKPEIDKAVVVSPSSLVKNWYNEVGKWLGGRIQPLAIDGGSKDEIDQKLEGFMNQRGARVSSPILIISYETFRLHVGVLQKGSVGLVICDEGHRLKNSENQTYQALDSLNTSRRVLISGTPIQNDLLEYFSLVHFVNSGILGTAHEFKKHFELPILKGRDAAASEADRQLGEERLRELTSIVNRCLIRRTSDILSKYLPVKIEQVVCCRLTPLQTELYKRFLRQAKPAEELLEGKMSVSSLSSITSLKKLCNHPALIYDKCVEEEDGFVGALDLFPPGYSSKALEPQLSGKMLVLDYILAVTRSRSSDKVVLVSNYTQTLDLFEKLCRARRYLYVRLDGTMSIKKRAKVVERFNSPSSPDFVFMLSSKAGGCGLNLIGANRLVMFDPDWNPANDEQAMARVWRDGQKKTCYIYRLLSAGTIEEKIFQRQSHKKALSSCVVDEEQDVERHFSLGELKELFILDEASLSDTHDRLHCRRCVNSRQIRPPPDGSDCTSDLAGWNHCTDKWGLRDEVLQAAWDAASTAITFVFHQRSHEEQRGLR
# run-description: RAD54 Holliday junction migration blockers – biochemical, fluorescence, cherry-picked samples, dose series, confirmation (AID 651657)
# Format: functional
The source made the active and inactive calls.
For each entry below, report its AC50 value.

*Q* # lookup: AC50 of CN(C)CCNC(=O)c1cc2c(s1)-c1ccc(Cl)cc1SC2
*A* 60.8 µM (active)

*Q* AC50 lookup needed for CC(C)N1CCc2c(sc(NC(=O)c3ccc(C(=O)c4ccccc4)cc3)c2C(N)=O)C1 , thanks.
*A* 68.7 µM (active)

*Q* May I ask what AC50 has been recorded for CN(C)CCNC(=O)c1cccc(-c2cnc3c(NC=O)cc(-c4ccccc4F)cn23)c1 ?
*A* 21.7 µM (active)

*Q* Which AC50 reading was recorded for the compound CCn1cc(C(=O)NCCN(C)C)c(=O)c2cc(F)c(N3CCN(C)CC3)cc21 ?
*A* 21.1 µM (active)

*Q* Any idea what AC50 was measured for CCOc1ccc2[nH]c3c(NCCN(C)C)ncnc3c2c1 ?
*A* 55.6 µM (active)

*Q* Need AC50 of CCn1c(=O)c2cc(C(=O)NCCN(C)C)sc2c2ccccc21 , thanks.
*A* 30.7 µM (active)

* * *

Task for the reader: assign each of the following compounds its reported AC50.
# run-description: off-target signal loss in HeLa-CEM21 co-culture – HeLa F-luc CTL cells, cherry-picked, counter-screen for HIV-1 Env fusion inhibitor project, dose response (AID 652040);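 note: potency for signal decrease marking cytotoxic or nonspecific inhibition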
# Format: functional, cell-based
Active and inactive are the calls of the source.

*Q* Any idea what its AC50 is? The compound is COc1ccc(N2C(=O)NC(=O)/C(=C(/C)NCCCn3ccnc3)C2=O)cc1
*A* 19.5 µM (active)

*Q* I'd like to know its AC50. The compound in question is COc1ccccc1CN1C(=O)CN(C2CCCCCC2)C(=O)C1c1ccc(F)cc1 (centres undefined)
*A* 60.9 µM (active)

*Q* // AC50 lookup, key: Cc1ccc(C(=O)Nc2cccc(C(=O)O)c2)cc1
*A* 2.07 µM (active)

*Q* Any idea what AC50 was measured for Cc1nc(Nc2nc(O)cc(CSc3nc4ccccc4[nH]3)n2)nc2ccccc12 ?
*A* 8.15 µM (active)

* * *

# assayed-system: Streptokinase A (Streptococcus pyogenes serotype M1, UniProt P10520)
# Sequence (P10520 whole entry): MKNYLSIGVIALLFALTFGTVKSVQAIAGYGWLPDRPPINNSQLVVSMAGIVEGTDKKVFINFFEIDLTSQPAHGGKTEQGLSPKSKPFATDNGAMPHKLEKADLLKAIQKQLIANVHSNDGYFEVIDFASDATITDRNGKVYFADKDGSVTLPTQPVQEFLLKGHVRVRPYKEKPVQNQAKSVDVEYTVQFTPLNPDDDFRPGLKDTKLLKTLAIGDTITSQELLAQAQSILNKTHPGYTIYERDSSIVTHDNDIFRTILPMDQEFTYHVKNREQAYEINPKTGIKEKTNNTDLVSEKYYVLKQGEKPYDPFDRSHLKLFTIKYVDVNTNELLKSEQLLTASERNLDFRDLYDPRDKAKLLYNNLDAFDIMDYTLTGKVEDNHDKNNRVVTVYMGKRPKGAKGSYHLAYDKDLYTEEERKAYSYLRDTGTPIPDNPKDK
# run-description: viability-normalized secreted streptokinase activity reduction – plasminogen activation absorbance, OD405, dose response (AID 1914);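 note: secreted streptokinase activity via plasminogen activation per viability signal from cell pellet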
# Format: functional, Streptococcus pyogenes M1 GAS
The source made the active and inactive calls.
quantity-measured: EC50

*Q* May I ask what EC50 has been recorded for Clc1ccccc1CN(Cc1ccccc1)c1ncnc2nc[nH]c12 ?
*A* > 150 µM (not active)

*Q* Could you tell me which EC50 is on file for O=C(Nc1ccc(OC(F)(F)F)cc1)C1CCCN(S(=O)(=O)c2c[nH]cn2)C1 (configuration not stated) ?
*A* > 150 µM (not active)

*Q* Report EC50 for O=C(Nc1nc2cc3c(cc2s1)OCCO3)c1ccco1 please.
*A* > 150 µM (not active)

*Q* Given Cc1ccccc1OCC(=O)Nc1ccccc1N1CCC(C)CC1 , state its recorded EC50.
*A* 45 µM (active)

*Q* # query: EC50 of entry O=c1cc(-c2ccc(O)c(-c3c(O)cc(O)c4c(=O)cc(-c5ccc(O)cc5)oc34)c2)oc2cc(O)cc(O)c12
*A* > 150 µM (not active)

*Q* Looking for the measured EC50 of CC(C)S(=O)(=O)c1csc(NC(=O)Nc2ccc(Cl)cc2)c1Cl , can you help?
*A* 74.3 µM (active)

*Q* Recorded EC50 for COc1cc(OC)cc(C(=O)Nc2nc3ccccc3[nH]2)c1 , please?
*A* > 150 µM (not active)
